Property: melting point

INSERT INTO assay_data (smiles_str, property, observed_result) VALUES
  ('CCCc1ccc(NC(=O)c2cccnc2NCc2ccc(=O)[nH]c2)cc1C(F)(F)F', 'melting point', '220 to 224 °C'),
  ('O=C(Nc1cc2ccccc2cn1)c1cccnc1NCc1ccncc1', 'melting point', '191 to 195 °C'),
  ('COc1ccc(CNc2ncccc2C(=O)Nc2cccc(C(F)(F)F)c2)cn1.Cl.Cl', 'melting point', '185 °C'),
  ('O=C(Nc1cccc(C(F)(F)F)c1)c1cccnc1NCc1cccc(O)c1', 'melting point', '143 to 146 °C'),
  ('CCCc1ccc(NC(=O)c2cccnc2NCc2ccncc2)cc1C(F)(F)F', 'melting point', '147 to 149 °C'),
  ('Cc1ccc(C(F)(F)F)cc1NC(=O)c1cccnc1NCc1ccncc1', 'melting point', '155 to 156 °C'),
  ('CCCc1ccc(NC(=O)c2cccnc2NCc2ccncc2)cc1', 'melting point', '147 to 149 °C'),
  ('O=C(Nc1cccc(C(F)(F)F)c1F)c1cccnc1NCc1ccc(=O)[nH]c1', 'melting point', '219 to 222 °C'),
  ('O=C(Nc1ccc2[nH]ncc2c1)c1cccnc1NCc1ccncc1', 'melting point', '225 to 230 °C'),
  ('CCCCCc1ccc(NC(=O)c2cccnc2NCc2ccncc2)cc1', 'melting point', '106 to 107 °C'),
  ('CCCCc1ccc(NC(=O)c2cccnc2NCc2ccncc2)cc1', 'melting point', '107 to 108 °C'),
  ('O=C(Nc1cccc(C(F)(F)F)c1F)c1cccnc1NCc1ccncc1', 'melting point', '137 to 140 °C'),
  ('CC#Cc1ccc(NC(=O)c2cccnc2NCc2ccncc2)cc1C(F)(F)F', 'melting point', '213 to 217 °C'),
  ('O=C(Nc1ccc(Br)c(C(F)(F)F)c1)c1cccnc1NCc1ccncc1', 'melting point', '164 to 165 °C'),
  ('CC(C)(C)[C@H]1CC[C@@H](NC(=O)c2cccnc2NCc2ccncc2)CC1', 'melting point', '103 to 106 °C'),
  ('CC#Cc1ccc(NC(=O)c2cccnc2NCc2ccncc2)cc1', 'melting point', '216 to 221 °C'),
  ('O=C(Nc1cc(F)cc(C(F)(F)F)c1)c1cccnc1NCc1ccncc1', 'melting point', '196 °C');
